Molecular target: T1, huNotch2-EGF6-10 (human, UniProt Q04721 219-418)
T1 construct: also called human Notch2 EGF6-10
T1 sequence: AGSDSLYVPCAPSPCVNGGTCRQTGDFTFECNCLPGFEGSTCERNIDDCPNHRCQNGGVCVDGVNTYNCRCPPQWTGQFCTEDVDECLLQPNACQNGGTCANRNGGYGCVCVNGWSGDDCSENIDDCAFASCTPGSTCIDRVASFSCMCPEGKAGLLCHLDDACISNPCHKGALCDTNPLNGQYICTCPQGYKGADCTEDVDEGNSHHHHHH
Experiment: SPR BIAcore, separate experiment, substantially as for Table 4
Measured koff accompanies every entry in the list below.
Report the value in s⁻¹ with no unit label.

Look at this binder and give its reported koff. hu.3107.L6H13 (antibody, V domains shown, also called hu.Notch-3107.L6H13) VH: EVQLVQSGAEVKKPGASVKVSCKASGYTFSNYVIHWVRQAPGQGPEWTGYIIPGSGGTKFNEKFKGRATSTVDTSITTAYMELSRLRSDDTVVYYCARDGAGSFTYWGQGTLVTVSS VL: DVVMTQSPDSLAVSLGERATINCRSSQSLVHSDGNTYLHWFQQKPGQPPKLLIYRISNRFSGVPDRFSGSGSGTDFTLTISSLQAEDVAVYYCLQSTHFPDTFGGGTKVEIK
0.00424

Can you handle hu.3107.L7H14 (antibody, V domains shown, also called hu.Notch-3107.L7H14) VH: EVQLVQSGAEVKKPGESLKISCKGSGYTFSNYVIHWVRQMPGKGPEWTGYIIPGSGGTKFNEKFKGQATISVDKSSTTAYLQWSSLKASDTAMYYCARDGAGSFTYWGQGTLVTVSS VL: DIVMTQSPDSLAVSLGERATINCRSSQSLVHSDGNTYLHWYQQKPGQPPKLLIYRISNRFSGVPDRFSGSGSGTDFTLTISSLQAEDVAVYYCLQSTHFPDTFGGGTKVEIK next?
0.00359

Field entry: hu.3107.L1H13 (antibody, V domains shown, also called hu.Notch-3107.L1H13) VH: EVQLVQSGAEVKKPGASVKVSCKASGYTFSNYVIHWVRQAPGQGPEWTGYIIPGSGGTKFNEKFKGRATSTVDTSITTAYMELSRLRSDDTVVYYCARDGAGSFTYWGQGTLVTVSS VL: DVVMTQSPLSLPVTLGQPASISCRSSQSLVHSDGNTYLHWFQQRPGQSPRLLIYRISNRFSGVPDRFSGSGSGTDFTLKISRVEAEDVGVYYCLQSTHFPDTFGGGTKVEIK
0.00587
